Origin of measurements: the supplement of paper PMC9732359

assay_protocol: protein stability index of a GFP-peptide fusion (yeast GPS) (PSI 1-4); higher = more stable; sorted into four equal gates, so the index is relative within each strain
recorded_conditions: pdr5∆
Class (by protein stability index) -- low range: < 2; mid range: ≥ 2 and < 3; high range: ≥ 3

// below: answered sequences
>  <item_sequence>
NSDDIIDVDMDASPAPS [SRB5]

>  <label_value>
mid range

$$$$
>  <item_sequence>
VDTGLQPQHPHYVSTSK [YLR018C/POM34]

>  <label_value>
mid range

$$$$
>  <item_sequence>
NRQTLMFTATMTPVIEK [PRP28]

>  <label_value>
mid range

$$$$
>  <item_sequence>
KSLGLKLPLSVINVSAQ [RPS17A]

>  <label_value>
low range

$$$$
>  <item_sequence>
KPALGSLGSSSTTASGT [YGR119C/NUP57]

>  <label_value>
high range

$$$$

Prompt: Hello team, could you let me know which band the following sequence falls into: VQQSEKLRNEVERIQKM [YIL149C/MLP2]
Response: high range

Prompt: Hello team, could you let me know which band the following sequence falls into: SFVFGQAAAKPSLEKSS [YLR335W/NUP2]
Response: mid range

Prompt: Hello team, could you let me know which band the following sequence falls into: AEQEKAKNIISNVLDGN [LRP1]
Response: mid range

Prompt: Hello team, could you let me know which band the following sequence falls into: KNVRTRIKLATTSERVS [RRI1]
Response: mid range
